Where do the numbers come from? From ChEMBL document CHEMBL1201862.

Below, each entry is listed with its recorded IC50.
- Assay protocol: cells
- Assay type: functional
Activity calls are given as the source filed them. How the calls were made is not given here.
Measurement label: IC50

>  <Compound>
CCCCC1CCC(C(=O)Nc2ccc(S(=O)(=O)Nc3nccs3)cc2)CC1 (centres undefined)

>  <Measurement label>
IC50

>  <Observed measurement>
14.5 µM (active)

$$$$
>  <Compound>
CC(C)Cc1cc(C(=O)Nc2ccc(F)cc2F)no1

>  <Measurement label>
IC50

>  <Observed measurement>
12 µM (active)

$$$$
>  <Compound>
CCn1nnc(NC(=O)c2ccc(-c3ccc(Cl)cc3)o2)n1

>  <Measurement label>
IC50

>  <Observed measurement>
> 50 µM (active)

$$$$
>  <Compound>
C/C(=N\NC(=O)c1cccc(Br)c1)c1ccccn1

>  <Measurement label>
IC50

>  <Observed measurement>
0.57 µM (active)

$$$$

====

- Assayed target: Microphthalmia-associated transcription factor (Homo sapiens, UniProt O75030)
- Sequence (O75030 whole entry): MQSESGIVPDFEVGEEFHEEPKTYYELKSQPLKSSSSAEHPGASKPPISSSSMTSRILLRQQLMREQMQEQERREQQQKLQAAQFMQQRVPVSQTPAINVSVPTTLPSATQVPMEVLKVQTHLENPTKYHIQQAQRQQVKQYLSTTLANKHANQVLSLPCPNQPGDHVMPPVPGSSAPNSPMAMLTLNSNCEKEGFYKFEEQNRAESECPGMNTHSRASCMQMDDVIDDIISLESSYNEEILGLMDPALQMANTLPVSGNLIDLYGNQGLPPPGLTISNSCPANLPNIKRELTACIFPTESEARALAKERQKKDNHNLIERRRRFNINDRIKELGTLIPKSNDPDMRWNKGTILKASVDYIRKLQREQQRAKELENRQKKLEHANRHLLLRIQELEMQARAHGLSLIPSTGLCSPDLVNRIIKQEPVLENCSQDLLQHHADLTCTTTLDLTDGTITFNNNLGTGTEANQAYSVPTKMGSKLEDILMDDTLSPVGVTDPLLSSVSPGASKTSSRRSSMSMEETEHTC
- Assay protocol: reducers of TRPM1 reporter luminescence, concentration series – cell-based, SK-MEL-5, cherry-picked, set 3, MITF inhibitor project, dose response (AID 493073);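 further: SK-MEL-5 melanoma cells with luciferase driven by the MITF target TRPM1 promoter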
- Type: functional
The source made the active and inactive calls. No rule for the calls is given here.
Below, each entry is listed with its recorded AC50.
Measurement label: AC50

>  <Molecule>
CC1CCC(C(C)C)C(OC(=O)Cn2c(-c3ccc(Cl)cc3)[n+](C)c3ccccc32)C1 (stereo unspecified)

>  <Measurement label>
AC50

>  <Observed measurement>
6.29 µM (active)

$$$$
>  <Molecule>
Nc1ccc2c(c1)OC1(CCCC1)O2

>  <Measurement label>
AC50

>  <Observed measurement>
11.2 µM (active)

$$$$
>  <Molecule>
N=c1n(CC(=O)c2ccc([N+](=O)[O-])cc2)c2ccccc2n1Cc1ccccc1

>  <Measurement label>
AC50

>  <Observed measurement>
4.83 µM (active)

$$$$
>  <Molecule>
CC1=NNC(=O)/C1=C\c1cn(-c2ccccc2)nc1-c1ccc(F)cc1

>  <Measurement label>
AC50

>  <Observed measurement>
6.52 µM (active)

$$$$
>  <Molecule>
Cn1c(=O)c([N+](=O)[O-])c(-n2ccnc2)c2ccccc21

>  <Measurement label>
AC50

>  <Observed measurement>
6.6 µM (active)

$$$$
>  <Molecule>
CN(Cc1ccccc1)C1=CC(=[N+]2CCCC2)CC(C)(C)C1

>  <Measurement label>
AC50

>  <Observed measurement>
1.55 µM (active)

$$$$

====

- Assayed target: Aminopeptidase N (Plasmodium falciparum FcB1/Columbia, UniProt O96935)
- Sequence (O96935 whole entry): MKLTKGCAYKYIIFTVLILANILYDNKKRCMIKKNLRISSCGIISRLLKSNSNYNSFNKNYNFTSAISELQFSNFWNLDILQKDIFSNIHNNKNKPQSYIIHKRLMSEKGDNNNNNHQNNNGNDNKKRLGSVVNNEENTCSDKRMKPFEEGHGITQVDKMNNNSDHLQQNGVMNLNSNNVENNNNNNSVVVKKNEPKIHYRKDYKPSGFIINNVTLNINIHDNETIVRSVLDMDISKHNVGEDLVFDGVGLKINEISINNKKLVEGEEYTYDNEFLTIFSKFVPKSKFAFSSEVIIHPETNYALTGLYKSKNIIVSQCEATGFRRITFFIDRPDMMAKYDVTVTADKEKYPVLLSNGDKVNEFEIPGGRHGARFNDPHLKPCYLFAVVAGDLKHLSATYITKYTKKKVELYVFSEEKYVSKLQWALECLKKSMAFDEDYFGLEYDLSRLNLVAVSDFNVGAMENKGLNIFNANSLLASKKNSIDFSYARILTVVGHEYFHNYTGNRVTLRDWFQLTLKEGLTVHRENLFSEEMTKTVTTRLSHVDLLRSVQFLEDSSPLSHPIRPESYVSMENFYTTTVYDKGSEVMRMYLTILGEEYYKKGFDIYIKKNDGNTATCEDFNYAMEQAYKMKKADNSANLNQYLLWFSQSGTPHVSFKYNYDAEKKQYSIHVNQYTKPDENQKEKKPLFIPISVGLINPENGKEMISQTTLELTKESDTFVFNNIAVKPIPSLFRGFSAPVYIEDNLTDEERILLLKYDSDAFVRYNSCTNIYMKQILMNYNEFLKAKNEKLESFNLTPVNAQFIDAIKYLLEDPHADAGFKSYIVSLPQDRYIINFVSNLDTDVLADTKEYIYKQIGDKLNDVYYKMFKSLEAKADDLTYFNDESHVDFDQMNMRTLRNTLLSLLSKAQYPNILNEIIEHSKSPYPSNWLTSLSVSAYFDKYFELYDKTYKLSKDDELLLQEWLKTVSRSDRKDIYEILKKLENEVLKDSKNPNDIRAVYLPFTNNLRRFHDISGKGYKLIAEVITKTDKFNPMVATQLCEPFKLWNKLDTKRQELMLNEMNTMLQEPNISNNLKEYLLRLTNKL
- Assay protocol: malaria alanyl aminopeptidase activity blockers – biochemical, fluorogenic H-Leu-NHMec substrate, 1536-well (AID 1445)
- Set-up: species or system Plasmodium falciparum 3D7, 3D7
The source made the active and inactive calls. No rule for the calls is given here.

>  <Molecule>
COc1cc(OC)c(NS(=O)(=O)c2ccc(Cl)c(C(=O)OC(C)C(=O)N3CCCC3)c2)cc1Cl (centres undefined)

>  <IC50>
38.6 µM (active)

$$$$
>  <Molecule>
CCOC(=O)NN1C(=O)c2ccccc2NC12CCCC2

>  <IC50>
32.6 µM (active)

$$$$
>  <Molecule>
CCOc1cc(/C=N/NC2=NC(=O)C(CC(=O)O)S2)ccc1OS(=O)(=O)c1ccc(C)cc1 (centres undefined)

>  <IC50>
47.8 µM (active)

$$$$
>  <Molecule>
CCOC(=O)C(=CN=C(N)Nc1nc2ccccc2o1)C(=O)OCC

>  <IC50>
79.2 µM (active)

$$$$
>  <Molecule>
O=C(NC1CCCCC1)NC1CCN(C(=S)NCc2ccco2)CC1

>  <IC50>
66.3 µM (active)

$$$$
>  <Molecule>
Cc1noc(NS(=O)(=O)c2ccc(NC(=O)CSc3n[nH]c4c5ccccc5nc-4n3)cc2)c1C

>  <IC50>
21.9 µM (active)

$$$$
>  <Molecule>
O=C(NCc1cccc(F)c1)C1CCN(S(=O)(=O)Cc2ccccc2)CC1

>  <IC50>
1.71 µM (active)

$$$$
>  <Molecule>
CCOc1cc(/C=C2/C(=N)N3N=C(c4ccccc4)SC3=NC2=O)ccc1O

>  <IC50>
30.1 µM (active)

$$$$
>  <Molecule>
CC(=O)/N=C1\C(=O)N(C)c2cccc3c(O)c4ccccc4c1c23

>  <IC50>
27.9 µM (active)

$$$$
